target: Bromodomain-containing protein 3 (Homo sapiens, UniProt Q15059); test: Binding affinity to His6-tagged BRD3 (1 to 475 aa) (unknown origin) by SPR method
Sequence (Q15059 whole entry, the tested form may be a part): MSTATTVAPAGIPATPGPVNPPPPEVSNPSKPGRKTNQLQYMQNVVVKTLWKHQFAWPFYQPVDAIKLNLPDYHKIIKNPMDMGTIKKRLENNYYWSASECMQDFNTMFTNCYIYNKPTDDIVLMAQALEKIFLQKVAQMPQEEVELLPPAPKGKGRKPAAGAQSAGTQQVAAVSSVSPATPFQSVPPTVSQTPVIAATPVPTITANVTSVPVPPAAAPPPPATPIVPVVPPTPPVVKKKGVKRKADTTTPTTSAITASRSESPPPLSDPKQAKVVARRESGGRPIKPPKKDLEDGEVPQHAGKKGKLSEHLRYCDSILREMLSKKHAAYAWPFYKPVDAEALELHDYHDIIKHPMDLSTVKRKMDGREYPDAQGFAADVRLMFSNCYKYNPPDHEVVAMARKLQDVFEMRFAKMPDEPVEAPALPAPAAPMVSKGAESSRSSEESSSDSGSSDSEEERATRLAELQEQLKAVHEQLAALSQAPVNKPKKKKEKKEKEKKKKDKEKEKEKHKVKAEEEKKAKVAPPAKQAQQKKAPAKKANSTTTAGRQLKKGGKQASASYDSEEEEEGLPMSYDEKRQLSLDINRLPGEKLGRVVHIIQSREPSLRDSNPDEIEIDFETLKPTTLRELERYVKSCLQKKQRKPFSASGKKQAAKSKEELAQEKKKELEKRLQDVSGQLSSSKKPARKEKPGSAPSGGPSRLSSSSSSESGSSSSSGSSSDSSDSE
metric: pKd
Here pKd is given on a logarithmic scale as minus log10 of the concentration in mol/L.

Input: What value of pKd on Bromodomain-containing protein 3 (Homo sapiens, UniProt Q15059) does `CC(=O)N1c2ccc(-c3ccc(C(=O)O)cc3)cc2[C@H](Nc2ccc(Cl)cc2)C[C@@H]1C` have?
Output: 7.70

---

molecular target: Bromodomain-containing protein 4 (Homo sapiens); test: Displacement of biotinylated tetra-acetylated histone H4 from His6-tagged BRD4 (1 to 477 aa) (unknown origin) after 1 hr by TR-FRET assay
metric: IC50 (nM)
Give the value, in units of nM, as a plain number.

Answered examples (3):
{"compound": "COC(=O)c1ccc(-c2ccc3c(c2)[C@H](Nc2ccc(C(C)(C)C)cc2)C[C@H](C)N3C(C)=O)cc1 (racemic)", "measured-target": "Bromodomain-containing protein 4 (Homo sapiens)", "IC50 [nM]": 631}
{"compound": "CC(=O)N1c2ccc(-c3ccc(CN4CCCCC4)cc3)cc2[C@H](N)C[C@@H]1C (racemic)", "measured-target": "Bromodomain-containing protein 4 (Homo sapiens)", "IC50 [nM]": 25100}
{"compound": "COc1cccc(N[C@@H]2C[C@H](C)N(C(C)=O)c3ccc(-c4ccc(C#N)cc4)cc32)c1 (racemic)", "measured-target": "Bromodomain-containing protein 4 (Homo sapiens)", "IC50 [nM]": 1000}

# evaluate next
Input: Quick check: IC50 of CC(=O)N1c2ccc(-c3ccc(C(=O)O)cc3)cc2[C@H](Nc2ccccc2)C[C@@H]1C (racemic) ?
Output: 501

---

assay: Solubility of the compound in fasted state simulated intestinal fluid at 125 ug/ml after 16 hrs by HPLC analysis; type: ADME; conditions: fasted state simulated intestinal fluid
Quick rule for you: solubility at 16 h at 100 µg/mL or higher means true (1), lower means false (0).

The examples below pair each entry with its known result.
{"compound": "CC(=O)N1c2ccc(-c3ccc(CN4CCOCC4)cc3)cc2[C@H](Nc2ccccc2)C[C@@H]1C (racemic)", "discrete-label": "true (1)"}
{"compound": "CC(=O)N1c2ccc(-c3ccc(C(=O)O)cc3)cc2[C@H](Nc2ccccc2)C[C@@H]1C (racemic)", "discrete-label": "true (1)"}
{"compound": "CC(=O)N1c2ccc(-c3ccc(CN4CCCCC4)cc3)cc2[C@H](Nc2ccccc2)C[C@@H]1C (racemic)", "discrete-label": "true (1)"}
{"compound": "CC(=O)N1c2ccc(-c3ccc(C#N)cc3)cc2[C@H](Nc2ccccc2)C[C@@H]1C (racemic)", "discrete-label": "false (0)"}
{"compound": "CC(=O)N1c2ccc(-c3ccc(C(=O)O)cc3)cc2[C@H](Nc2ccc(Cl)cc2)C[C@@H]1C", "discrete-label": "true (1)"}

Input: In plain terms: is recorded solubility at 16 h at least 100 µg/mL for COc1ccc(-c2ccc3c(c2)[C@H](Nc2ccccc2)C[C@H](C)N3C(C)=O)cc1 (racemic) ?
Output: false (0)

Input: Please answer likewise for CC(=O)N1c2ccc(-c3ccc(CO)cc3)cc2[C@H](Nc2ccccc2)C[C@@H]1C (racemic)
Output: false (0)

Input: Please answer likewise for COC(=O)c1ccc(-c2ccc3c(c2)[C@H](Nc2ccccc2)C[C@H](C)N3C(C)=O)cc1 (racemic)
Output: false (0)

Reference source for all entries: ChEMBL document CHEMBL3351476
